# assay: Example 18 Part 2: multiple dose PK (20 mg QID) of 3,4-DAP and 3-N-acetyl metabolite in slow and fast acetylators
# Format: in vivo, human
# measurement context: both sexes, human, plasma, oral, 20 mg, Day 1, slow acetylators, Dose 1 interval, 20 mg QID, arith. mean; read-out: Cmax
parameter: Cmax (ng/mL)
Give your result in ng/mL as a bare value.

Problem: Fill in Cmax for record CC(=O)Nc1cnccc1N [3-N-acetyl amifampridine, N-(4-aminopyridin-3-yl)acetamide]
Result: 150

====

# assay: Example 18 Part 2: multiple dose PK (20 mg QID) of 3,4-DAP and 3-N-acetyl metabolite in slow and fast acetylators
# Type: in vivo, human
# measurement context: both sexes, human, plasma, oral, 20 mg, Day 1, Dose 1, fast acetylators, 20 mg QID; read-out: Mean Tmax
parameter: Tmax (min)
I only need the number, in min, no unit after it.

Problem: Give the measured Tmax for `Nc1ccncc1N`
Result: 48.5

====

# assay: Example 18 Part 2: multiple dose PK (20 mg QID) of 3,4-DAP and 3-N-acetyl metabolite in slow and fast acetylators
# Assay type: in vivo, human
# measurement context: both sexes, human, plasma, oral, 20 mg, Day 1, fast acetylators, Dose 2 interval, 20 mg QID, arith. mean; read-out: AUC0-4
parameter: AUC(0-t) (ng·h/mL)
Kindly answer with a numeric value in ng·h/mL, unit omitted.

Problem: In one line, give reported AUC(0-t) of the entry CC(=O)Nc1cnccc1N [3-N-acetyl amifampridine, N-(4-aminopyridin-3-yl)acetamide] .
Result: 1160

====

# assay: Example 18 Part 2: multiple dose PK (20 mg QID) of 3,4-DAP and 3-N-acetyl metabolite in slow and fast acetylators
# Format: in vivo, human
# measurement context: both sexes, human, plasma, oral, 20 mg, Day 1, Dose 2, fast acetylators, 20 mg QID; read-out: Mean Cmax
parameter: Cmax (ng/mL)
Your answer should be a plain number; it is taken to be in ng/mL.

Problem: Dear colleague, please send me the reported Cmax for `Nc1ccncc1N` when you can.
Result: 13.3

====

# assay: Example 18 Part 2: multiple dose PK (20 mg QID) of 3,4-DAP and 3-N-acetyl metabolite in slow and fast acetylators
# Format: in vivo, human
# measurement context: both sexes, human, plasma, oral, 20 mg, Day 3, Dose 3, slow acetylators, 20 mg QID; read-out: Mean AUC0-4
parameter: AUC(0-t) (ng·h/mL)
Only the number, expressed in ng·h/mL, is required.

Problem: Give the value of AUC(0-t) reported for the following: `Nc1ccncc1N`
Result: 156

====

# assay: Example 18 Part 2: multiple dose PK (20 mg QID) of 3,4-DAP and 3-N-acetyl metabolite in slow and fast acetylators
# Assay type: in vivo, human
# measurement context: both sexes, human, plasma, oral, 20 mg, Day 3, fast acetylators, Dose 1 interval, 20 mg QID, arith. mean; read-out: Vz/F
parameter: Vd/F (L)
Provide the reading as a plain figure in L.

Problem: Provide one value: measured Vd/F of CC(=O)Nc1cnccc1N [3-N-acetyl amifampridine, N-(4-aminopyridin-3-yl)acetamide]
Result: 44.5

====

# assay: Example 18 Part 2: multiple dose PK (20 mg QID) of 3,4-DAP and 3-N-acetyl metabolite in slow and fast acetylators
# Assay type: in vivo, human
# measurement context: both sexes, human, plasma, oral, 20 mg, Day 4, 20 mg single dose, fast acetylators; read-out: Mean Vz/F
parameter: Vd/F (L)
Use L as the unit, but write only the number.

Problem: Respond only with Vd/F recorded for Nc1ccncc1N [3,4-DAP, 3,4-diaminopyridine]
Result: 1770
